system: HEK293; assay: Inhibitory activity against beta-amyloid (Abeta) peptide in human HEK293/APP751swe cells; assay type: functional, cell-based
VALUE TYPE: pIC50
Reminder that pIC50 means the negative base-10 logarithm of the concentration expressed in mol/L.

Give the value of pIC50 reported for the following: CC[C@H](C)[C@H](O)C(=O)N[C@@H](C)C(=O)N[C@@H](Cc1ccccc1)[C@@H](O)CC(C)C(=O)N[C@H](C(=O)NCc1ccncc1)C(C)C (single isomer, unassigned) 5.91

Give the value of pIC50 reported for the following: CCC(C[C@H](O)[C@H](Cc1ccccc1)NC(=O)[C@H](C)NC(=O)[C@@H](O)C(C)C)C(=O)N[C@H](C(=O)N[C@H](C)c1ccccc1)C(C)C (single isomer, unassigned) 4.87

Give the value of pIC50 reported for the following: CC(C)C[C@H](O)C(=O)N[C@@H](C)C(=O)N[C@@H](Cc1ccccc1)[C@@H](O)CC(C)C(=O)N[C@H](C(=O)NCc1ccncc1)C(C)C (single isomer, unassigned) 4.77

Give the value of pIC50 reported for the following: CC(C[C@H](O)[C@H](Cc1ccccc1)NC(=O)[C@H](C)NC(=O)[C@@H](F)C(C)C)C(=O)N[C@H](C(=O)NCc1ccncc1)C(C)C (single isomer, unassigned) 4.31

Give the value of pIC50 reported for the following: CCC(C[C@H](O)[C@H](Cc1ccccc1)NC(=O)[C@H](C)NC(=O)[C@@H](O)C(C)C)C(=O)N[C@H](C(=O)N[C@@H](C)c1ccccc1)C(C)C (single isomer, unassigned) 4.70

Give the value of pIC50 reported for the following: CC[C@H](C)[C@H](O)C(=O)N[C@@H](CCC(F)F)C(=O)N[C@@H](Cc1ccccc1)[C@@H](O)CC(CCC(F)F)C(=O)N[C@H](C(=O)NCc1ccncc1)C(C)C (single isomer, unassigned) 5.97

Give the value of pIC50 reported for the following: CSCC[C@H](NC(=O)[C@@H](O)C(C)C)C(=O)N[C@@H](Cc1ccccc1)[C@@H](O)CC(C)C(=O)N[C@H](C(=O)NCc1ccncc1)C(C)C (single isomer, unassigned) 4.60

Give the value of pIC50 reported for the following: CC(C[C@H](O)[C@H](Cc1ccccc1)NC(=O)[C@H](C)NC(=O)[C@@H](N)C(C)C)C(=O)NC(C(=O)NCc1ccncc1)C(C)C (single isomer, unassigned) 4.42

Give the value of pIC50 reported for the following: CC(C[C@H](O)[C@H](Cc1ccccc1)NC(=O)[C@H](C)NC(=O)[C@@H](O)CC(F)(F)F)C(=O)N[C@H](C(=O)NCc1ccncc1)C(C)C (single isomer, unassigned) 5.41

###

Give IC50 for every item shown.
target: UniProtKB P56817; test: In vitro inhibitory activity against Beta-secretase 1 in human HEK293 cells
Sequence (P56817 whole entry): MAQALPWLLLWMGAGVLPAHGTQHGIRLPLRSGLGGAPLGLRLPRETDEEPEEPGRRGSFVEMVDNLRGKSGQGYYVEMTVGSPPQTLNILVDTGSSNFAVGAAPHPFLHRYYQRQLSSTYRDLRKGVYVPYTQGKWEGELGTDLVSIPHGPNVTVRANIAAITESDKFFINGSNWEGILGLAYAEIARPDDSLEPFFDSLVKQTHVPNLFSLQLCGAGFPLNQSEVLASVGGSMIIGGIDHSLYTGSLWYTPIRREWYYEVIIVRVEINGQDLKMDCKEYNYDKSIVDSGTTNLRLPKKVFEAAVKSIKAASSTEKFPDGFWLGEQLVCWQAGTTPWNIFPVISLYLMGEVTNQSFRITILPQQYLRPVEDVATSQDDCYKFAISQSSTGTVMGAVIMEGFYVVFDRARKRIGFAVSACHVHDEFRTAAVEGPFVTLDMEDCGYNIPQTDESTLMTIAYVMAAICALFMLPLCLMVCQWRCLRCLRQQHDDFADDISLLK
Unit µM implied. Number only.

Give the value of IC50 reported for the following: CC(C[C@H](O)[C@H](Cc1ccccc1)NC(=O)[C@H](C)NC(=O)[C@@H](O)C(C)C)C(=O)N[C@H](C(=O)NCc1ccccc1)C(C)C (single isomer, unassigned) 0.037

Give the value of IC50 reported for the following: CC(C[C@H](O)[C@H](Cc1ccccc1)NC(=O)[C@H](C)NC(=O)[C@@H](O)CC(F)(F)F)C(=O)N[C@H](C(=O)NCc1ccncc1)C(C)C (single isomer, unassigned) 0.22

Give the value of IC50 reported for the following: CC(C[C@H](O)[C@H](Cc1ccccc1)NC(=O)[C@H](CO)NC(=O)[C@@H](O)C(C)C)C(=O)N[C@H](C(=O)NCc1ccncc1)C(C)C (single isomer, unassigned) 0.35

Give the value of IC50 reported for the following: CC(C)[C@H](O)C(=O)N[C@@H](C)C(=O)N[C@@H](Cc1ccccc1)[C@@H](O)C[C@@H](C)C(=O)N[C@H](C(=O)NCc1ccncc1)C(C)C 0.13

Give the value of IC50 reported for the following: CCC[C@H](NC(=O)[C@@H](O)C(C)C)C(=O)N[C@@H](Cc1ccccc1)[C@@H](O)CC(C)C(=O)N[C@H](C(=O)NCc1ccncc1)C(C)C (single isomer, unassigned) 0.55

Give the value of IC50 reported for the following: CC[C@H](C)[C@H](O)C(=O)N[C@@H](CCCF)C(=O)N[C@@H](Cc1ccccc1)[C@@H](O)CC(CCCF)C(=O)N[C@H](C(=O)NCc1ccncc1)C(C)C (single isomer, unassigned) 0.067

Values were extracted from ChEMBL document CHEMBL1146699.
